- Tested on: SK-MEL-2 melanoma
- EXPERIMENTAL_DETAILS: NCI tumour cell line growth inhibition, 48 h; in the data active means GI50 below about 0.43 µM; inactive means the rest
Field 'call' accepts y = active, n = inactive

The following molecules have reported results that may help.
CHEMICAL_STRUCTURE: COc1cc2c(c3oc(-c4ccc(O)cc4)c(O)c(=O)c13)CCC(C)(C)O2
ASSIGNED_CLASS: y

CHEMICAL_STRUCTURE: COc1cc2cc(NCc3cccc(Cl)c3)nc(C)c2cc1OC
ASSIGNED_CLASS: n

CHEMICAL_STRUCTURE: CN(C)CCNC(=O)c1cc2c3cc(Cl)ccc3[nH]c2c2ncccc12
ASSIGNED_CLASS: n

CHEMICAL_STRUCTURE: CCCCn1c(=O)[nH]c(N)c([C@@H]2c3c([nH]c(=O)n(CCCC)c3=O)Oc3ccc4ccccc4c32)c1=O
ASSIGNED_CLASS: n

CHEMICAL_STRUCTURE: Cn1cc(-c2ccc3nc(-c4ccc(CC(=O)Nc5cc(C(C)(C)C)no5)cc4)cnc3c2)cn1
ASSIGNED_CLASS: y

Can you look up the reported call for "C[C@@H]1CN2[C@H]3[C@@H]1CC[C@]31CCC(=O)O[C@]1(C)[C@H]1CC[C@H]3CCC=C3[C@@H]12" for me?
n

Can you look up the reported call for "CC1(C)N=C(N)N=C(N)N1c1ccc(OCCCNC(=O)Nc2ccc(S(=O)(=O)F)cc2)c(Cl)c1" for me?
n

Can you look up the reported call for "O=C1NC(=O)C(c2c[nH]c3ccccc23)=C1c1c[nH]c2ccccc12" for me?
n

* * *

- Test system: CCRF-CEM leukemia
- EXPERIMENTAL_DETAILS: NCI tumour cell line growth inhibition, 48 h
ENDPOINT: TGI

COMPOUND: NCCCCCC(CCN)SCC1OC(n2cnc3c(N)ncnc32)C(O)C1O (stereo not drawn)
TARGET_ENTITY: CCRF-CEM leukemia
TGI: > 1500 µM

COMPOUND: COc1ccc(C(=O)C(C(=O)CCC(=O)Nc2ccc(Cl)c(Cl)c2)c2ccc(OC)cc2)cc1 (stereo not drawn)
TARGET_ENTITY: CCRF-CEM leukemia
TGI: > 100 µM

Now take the following compound into account.
Which TGI value is on record for O=C(O)C(Cc1cc(I)c(O)c(I)c1)C1CCCCC1 (stereo not drawn) ?
> 100 µM

* * *

Some compounds, each annotated with its measured TGI.
- Test system: LOX IMVI melanoma
- EXPERIMENTAL_DETAILS: NCI tumour cell line growth inhibition, 48 h

COMPOUND: CCN(CC)C(=O)CCn1ccc(=O)[nH]c1=O
TGI: > 100 µM

COMPOUND: COc1cccc2c1C(=O)c1c(O)c3c(c(O)c1C2=O)C[C@@](O)(C(=O)CO)CC3OC1CC(N(C)CCOCC(OC(C)=O)OC(C)=O)C(O)C(C)O1 (stereo partly drawn)
TGI: > 0.01 µM

Now take the following compound into account.
Which TGI value is on record for C=C(CO)C(=O)OC1CC(=C)C2CC(O)C(C)C2C2OC(=O)C(=C)C12 (stereo not drawn) ?
> 100 µM

* * *

Some molecules, each annotated with its measured TGI.
- Tested on: MOLT-4 leukemia
- EXPERIMENTAL_DETAILS: NCI tumour cell line growth inhibition, 48 h

MOLECULE: O=C(/C=C/c1ccccc1)NC1C=Nc2ccc([N+](=O)[O-])cc2NC1=O (stereo not drawn)
TGI: > 100 µM
--
MOLECULE: O=S1OC(c2ccccc2)(c2ccccc2)C(c2ccccc2)(c2ccccc2)O1
TGI: > 100 µM

Now take the following molecule into account.
Provide value of TGI for this record tested with MOLT-4 leukemia: COc1cccc2c1C(=O)c1c(O)c3c(c(O)c1C2=O)C[C@@](O)(C(=O)CO)CC3OC1CC(N(C)CCOCC(OC(C)=O)OC(C)=O)C(O)C(C)O1 (stereo partly drawn)
> 0.01 µM

* * *

- Test system: A549 NSCLC
- EXPERIMENTAL_DETAILS: NCI tumour cell line growth inhibition, 48 h
Some compounds, each annotated with its measured GI50.

Please review the following examples before continuing.
CHEMICAL_STRUCTURE: O=C1C=C(Nc2ccccc2)c2ccccc2C1=O
ENDPOINT: GI50
DATA_VALUE: 1.84 µM

CHEMICAL_STRUCTURE: CC[C@@]1(OP(=O)(O)O)C(=O)OCc2c1cc1n(c2=O)Cc2cc3ccccc3nc2-1
ENDPOINT: GI50
DATA_VALUE: 0.12 µM

Now take the following compound into account.
Provide value of GI50 for this record tested with A549 NSCLC: "O=[N+]([O-])c1ccc(C2=NCCO2)cc1"
> 100 µM

* * *

- Tested on: SR leukemia
- EXPERIMENTAL_DETAILS: NCI tumour cell line growth inhibition, 48 h
Some compounds, each annotated with its measured TGI.

Please review the following examples before continuing.
COMPOUND: Cc1ccc(S(=O)c2ccccc2[N+](=O)[O-])cc1 (stereo not drawn)
TGI: > 100 µM
--
COMPOUND: C#CCOC(=O)C(N)CC(N)=O (stereo not drawn)
TGI: > 100 µM

Now take the following compound into account.
Provide value of TGI for this record tested with SR leukemia: "Cc1ccc(S(=O)(=O)n2cc(/C=C/C#N)c(-c3cn(S(=O)(=O)c4ccc(C)cc4)cc3-c3cn(S(=O)(=O)c4ccc(C)cc4)cc3/C=C/C#N)c2)cc1"
> 100 µM

* * *

- System: KM12 colon
- EXPERIMENTAL_DETAILS: NCI tumour cell line growth inhibition, 48 h; in the data active = GI50 below about 0.43 µM; inactive = the rest
Field 'call' accepts True for active, False for inactive

The following molecules have reported results that may help.
CHEMICAL_STRUCTURE: COc1cccc2c1nc(C(F)F)n2-c1nc(-c2ccc(NS(=O)(=O)CCN(C)C)cc2)nc(N2CCOCC2)n1
ASSIGNED_CLASS: True
--
CHEMICAL_STRUCTURE: Cc1c(Cl)cccc1C(=O)Nc1nc2c(s1)CN(C(=O)Nc1cccc(C(F)(F)F)c1)CC2
ASSIGNED_CLASS: True
--
CHEMICAL_STRUCTURE: COC(=O)[C@@H](C)C[C@H](Cc1ccccc1)NC(=O)c1nc([C@@H](C[C@H](C(C)C)N(C)C(=O)[C@@H](NC(=O)[C@H]2C[C@H](O)CCN2C)C(C)C)OC(C)=O)sc1C(C)C
ASSIGNED_CLASS: True

Can you look up the reported call for "O=C(O)c1ccc(N(/C=C/C(=O)C(F)(F)F)Cc2ccc(Cl)cc2)cc1" for me?
False

* * *

Some compounds, each annotated with its measured TGI.
- Tested on: SK-MEL-2 melanoma
- EXPERIMENTAL_DETAILS: NCI tumour cell line growth inhibition, 48 h

Please review the following examples before continuing.
COMPOUND: C=CC(=O)NCCC(=O)OCn1cc(F)c(=O)[nH]c1=O
TGI: > 100 µM
--
COMPOUND: O=C1NC(=O)C(c2c[nH]c3ccccc23)=C1c1c[nH]c2ccccc12
TGI: > 25 µM
--
COMPOUND: CC(=O)OCC1OC(N2C(=O)[C@@H](Oc3ccccc3)[C@H]2/C=C/c2ccccc2)C(OC(C)=O)C(OC(C)=O)C1OC(C)=O (stereo partly drawn)
TGI: > 100 µM
--
COMPOUND: O=C(/C=C/c1ccccc1)NC1C=Nc2ccc([N+](=O)[O-])cc2NC1=O (stereo not drawn)
TGI: > 100 µM
--
COMPOUND: CCCCNC(=O)OCCN=c1c2ccccc2ccc2ccccc12
TGI: > 100 µM

Now take the following compound into account.
Provide value of TGI for this record tested with SK-MEL-2 melanoma: "CCCCn1c(=O)[nH]c(N)c([C@@H]2c3c([nH]c(=O)n(CCCC)c3=O)Oc3ccc4ccccc4c32)c1=O"
7.34 µM

* * *

- Test system: T-47D breast
- EXPERIMENTAL_DETAILS: NCI tumour cell line growth inhibition, 48 h
Some molecules, each annotated with its measured TGI.

CHEMICAL_STRUCTURE: Sc1cccc2cccnc12
TGI: 12.3 µM
//
CHEMICAL_STRUCTURE: CN(Cc1cnc2nc(N)nc(N)c2n1)c1ccc(C(=O)NCCCS(=O)(=O)O)cc1
TGI: > 100 µM

Which TGI value is on record for "O=C(CCC(=O)c1ccsc1)c1ccsc1" ?
> 100 µM

* * *

- Test system: RXF 393 renal
- EXPERIMENTAL_DETAILS: NCI tumour cell line growth inhibition, 48 h
ENDPOINT: GI50

CHEMICAL_STRUCTURE: COC(=O)[C@@H](C)C[C@H](Cc1ccccc1)NC(=O)c1nc([C@@H](C[C@H](C(C)C)N(C)C(=O)[C@@H](NC(=O)[C@H]2C[C@H](O)CCN2C)C(C)C)OC(C)=O)sc1C(C)C
GI50: 0.025 µM
//
CHEMICAL_STRUCTURE: Cn1ncnc1[C@@H]1c2n[nH]c(=O)c3cc(F)cc(c23)N[C@H]1c1ccc(F)cc1
GI50: > 100 µM
//
CHEMICAL_STRUCTURE: CN(C)CCC(N)(P(=O)([O-])[O-])P(=O)([O-])[O-].N.N.[Pt+2]
GI50: > 100 µM

Now take the following compound into account.
Provide value of GI50 for this record tested with RXF 393 renal: "N#CCCNc1nonc1-c1nc2ccccc2n1CC(=O)c1ccc(N)cc1"
0.0129 µM
